B1: Twister Ribozyme (parent)
chain: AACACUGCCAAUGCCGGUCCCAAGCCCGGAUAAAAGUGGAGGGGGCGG

variants of: B1; test: self-cleavage, relative activity (ratio to wild type); higher = more cleavage; co-transcriptional
MEASUREMENT_NAME: self-cleavage

- AACACUGCCAAUGCCGGUCCCAAGCCCGGAUAAAAGUGGAGGGGGCAG [G47A]: 0.952
- AACCCUGACAAUGCCGGUCCCAAGCCCGGAUAAAAGUGGAGGGGGCGG [A4C C8A]: 0.119
- AACACUGCCAAUGCCGGUCCGAAGCCCGGAGAAAAGUGGAGGGGGCGG [C21G U31G]: 0.0712
- AACACUGUCAAUGCCCGUCCCAAGCCCGGAUAAAAGUGGAGGGGGCGG [C8U G16C]: 0.199
- AACACUGCCAAUGCGGGUCCCAGGCCCGGAUAAAAGUGGAGGGGGCGG [C15G A23G]: 0.0653
- AACACUGCCAAUGCGGGUCCCAAGCCCGGAUAAAUGUGGAGGGGGCGG [C15G A35U]: 0.0985
- AACACUGCCAAUGCCGGCCCCAAGCCCGGAUAAAAGCGGAGGGGGCGG [U18C U37C]: 0.0756
- CACACUGCCAAUGCCGGUCCCAAGCCCGGAUAAAAGUGGAGGGGGUGG [A1C C46U]: 0.18
- AACACUGCCAAUGCCGGUCCCAAGCCCGGAUGAAAGUGGAGGGGGCUG [A32G G47U]: 0.893
- AACACUGCCAAUGCCGGUCCCAAGCCCGGAUAAAAGUGGAGAGGGCGG [G42A]: 0.516
- AACACUUCCAAUGCCGGUCCCAAGCCCAGAUAAAAGUGGAGGGGGCGG [G7U G28A]: 0.0571
- AACACUGCCAAUGCCCGUACCAAGCCCGGAUAAAAGUGGAGGGGGCGG [G16C C19A]: 0.165
- AACACUGCCAAGGCCGUUCCCAAGCCCGGAUAAAAGUGGAGGGGGCGG [U12G G17U]: 0.239
- AACACUGCCAAUGCCGGUCCCAAGCCCGGAUCAAAGUGGAGCGGGCGG [A32C G42C]: 0.326
- AACACUGCCAAUGCCGGUCCCAAGCCCGGCUAAACGUGGAGGGGGCGG [A30C A35C]: 0.808
- AACAAUGCCAAUGCCGGUCCCAAGCCCGGAUAAAAUUGGAGGGGGCGG [C5A G36U]: 0.689
- AACCCUGCCAAUGCCAGUCCCAAGCCCGGAUAAAAGUGGAGGGGGCGG [A4C G16A]: 0.0955
- AACACUGCCAAUGACGGUCCCAAGCCCGGAUAAAAGUGGAGGGUGCGG [C14A G44U]: 0.883
- AGCACUGCCAAUGCCGGUCCCAAGCCCGGAUACAAGUGGAGGGGGCGG [A2G A33C]: 0.503
- AACACUUCCAAUACCGGUCCCAAGCCCGGAUAAAAGUGGAGGGGGCGG [G7U G13A]: 0.0636
- AACACUGCCAAUGCCGGUCCCAAGCGCGGAUAAAUGUGGAGGGGGCGG [C26G A35U]: 0.497
- AACACUGCCAAUGCCGGUCCGAAGCCCGGAUAAAAGUGGAGAGGGCGG [C21G G42A]: 0.0891
- AACACUGCCAAUGCCCGUCCCAAGCCUGGAUAAAAGUGGAGGGGGCGG [G16C C27U]: 0.854
- AACACUGCCAAUGCCGGUCCCAAGCCCGGCUAAAAGUGGAGAGGGCGG [A30C G42A]: 0.129
- AACACUGCCAAUGCCGGUCGCAAGCCCGGAGAAAAGUGGAGGGGGCGG [C20G U31G]: 0.146
- AACACUGCCAAUGCCGGUCCCAAGACCGGACAAAAGUGGAGGGGGCGG [C25A U31C]: 0.138
- AACACUGCCAAUGCUGGUCCCAAGCCCGUAUAAAAGUGGAGGGGGCGG [C15U G29U]: 0.652
- AACACUGCCGAUGCCGGUCCCAAGCCCCGAUAAAAGUGGAGGGGGCGG [A10G G28C]: 1.05
- AACACUGCCAACGCCGGUCCCCAGCCCGGAUAAAAGUGGAGGGGGCGG [U12C A22C]: 0.861
- AACACUGCCAAUGCCGGUCCCGAGCCCGGAUAAAAGUGGUGGGGGCGG [A22G A40U]: 0.138
- AACACUGCCAAUGCCGAUCCCUAGCCCGGAUAAAAGUGGAGGGGGCGG [G17A A22U]: 0.258
- AACACUGCCAAUGCAGGUCCCAAGCCCGGAUAAAAGUGGAGCGGGCGG [C15A G42C]: 0.182
- AACACUGCCAACGCCGGUCCCAACCCCGGAUAAAAGUGGAGGGGGCGG [U12C G24C]: 0.0606
- AACACAGCCAAUGCCGGUCCCAAGCCCGGAUAGAAGUGGAGGGGGCGG [U6A A33G]: 0.881
- AACGCUGCCAAUGCCGGUCCCAACCCCGGAUAAAAGUGGAGGGGGCGG [A4G G24C]: 0.0502
- AACACUGCCAAGGCCGGUCCCAAGCCCGGAUAAAAGUGGAGGGGGCUG [U12G G47U]: 0.703
- AACACUGCCAAUGCCGGUCCCAAGCCCCGAUAAAAGUGAAGGGGGCGG [G28C G39A]: 0.445
- AACACUGCCAAUGCCGGUCCCAAGCCCGGAUAAGGGUGGAGGGGGCGG [A34G A35G]: 0.526
- AACACUGCCAAUGCCAGUCCCAACCCCGGAUAAAAGUGGAGGGGGCGG [G16A G24C]: 0.0993
- AACACUGCCAAUGCCGGUCCGAUGCCCGGAUAAAAGUGGAGGGGGCGG [C21G A23U]: 0.032
- AACACUGCCAAUGCCGGUCCCAAGCACGGAUAAAAGUGGAGGGGGCGA [C26A G48A]: 0.304
- AGCACUGCCAAUGCCGGCCCCAAGCCCGGAUAAAAGUGGAGGGGGCGG [A2G U18C]: 0.102
- AACACUGCCAAUGCCGAUCUCAAGCCCGGAUAAAAGUGGAGGGGGCGG [G17A C20U]: 0.373
- AACACUGCCAAUGCCGGUCCUAUGCCCGGAUAAAAGUGGAGGGGGCGG [C21U A23U]: 0.0638
- AACACUGCCAAUGCCGGUCCCAAGCCCGGAUAAAAGUGGAGGCGUCGG [G43C G45U]: 0.275
- AACACUGCCAAUGCCGGUCCCGAGCCCGGAUAAAAGUCGAGGGGGCGG [A22G G38C]: 0.0945
